These entries and their values trace back to paper PMC7689895.

// nontoxic dose lookup, one value per entry
test system: BGM; test: Cytotoxicity test; assay type: cell-based; details: BGM cell line
The reply should be a number in µg/mL, with the unit left off.

# annotated cases, reported nontoxic dose shown
N#Cc1cc(-c2nc3ccccc3s2)c(=O)n(NS(=O)(=O)c2ccc(Cl)cc2)c1N [compound 13b] = 100
CCOC(=O)c1cc(-c2nc3ccccc3s2)c(=O)n(NS(=O)(=O)c2ccc(C)cc2)c1N [compound 13f] = 130
O=c1c(-c2nc3ccccc3s2)cc2c(n1NS(=O)(=O)c1ccccc1)CCCC2 = 110
N#Cc1cc(-c2nc3ccccc3s2)c(=O)n(NS(=O)(=O)c2ccccc2)c1N [compound 13a] = 100
O=c1c(-c2nc3ccccc3s2)cc2c(n1NS(=O)(=O)c1ccc(Cl)cc1)CCCC2 = 130

Form: compound = Cc1ccc(S(=O)(=O)Nn2c(N)c(C#N)cc(-c3nc4ccccc4s3)c2=O)cc1 [compound 13c] ; nontoxic dose = 110
